Value source: paper PMC9482650

Target: NOS1, P29475
Sequence (P29475 9-101): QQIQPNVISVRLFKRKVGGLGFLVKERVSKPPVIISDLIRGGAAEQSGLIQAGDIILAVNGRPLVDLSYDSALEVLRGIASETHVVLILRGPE
Experiment: holdup assay
Design: key: below the threshold = too weak to quantify, mostly under pKd 3.1 to 4
Details: plain residues with an end cap or a label only (N-terminal biotin on a linker: ado-ado)
quantity measured: pKd

Sample records with pKd:
1) SNAGNTATKA [NOSTRIN, Q8IVI9] ... below the threshold
2) LKVPPEERLI [CRB2, Q5IJ48] ... below the threshold
3) SGSLKLMTTV [DACT1, Q9NYF0] ... below the threshold
4) VYPNAKVELV [PDLIM4_iso2, P50479;P50479-1] ... 4.05
5) YNNCLEILRV [DCAF7, P61962] ... below the threshold
6) TSSMRGMDAV [RSRC2, Q7L4I2] ... 4.38
7) PAPSSGKDYV [CLDN1, O95832] ... 4.06

Now consider the entry below.
Exercise: pKd for SKSNFGSEPL [KIF17, Q9P2E2] ?
Solution: below the threshold
